- Test system: Staphylococcus aureus
- Procedure Text: Antimicrobial activity against vancomycin-resistant Staphylococcus aureus 12 by broth liquid microdilution method
- Type: functional
Experimental Endpoint: MBC
Answer format: value, then unit.

As a guide, the following entries are already answered.
[
  {
    "Compound Structure String": "C/C(=N\\NC(=N)N)c1sc(-c2ccc(C#CCCN3CCC3)cc2)nc1C",
    "Target System": "Staphylococcus aureus",
    "MBC": "16 µg/mL"
  },
  {
    "Compound Structure String": "CN[C@H](CC(C)C)C(=O)N[C@H]1C(=O)N[C@@H](CC(N)=O)C(=O)N[C@H]2C(=O)N[C@H]3C(=O)N[C@H](C(=O)N[C@H](C(=O)O)c4cc(O)cc(O)c4-c4cc3ccc4O)[C@H](O)c3ccc(c(Cl)c3)Oc3cc2cc(c3O[C@@H]2O[C@H](CO)[C@@H](O)[C@H](O)[C@H]2O[C@H]2C[C@](C)(N)[C@H](O)[C@H](C)O2)Oc2ccc(cc2Cl)[C@H]1O",
    "Target System": "Staphylococcus aureus",
    "MBC": "64 µg/mL"
  }
]

Reported MBC of "C/C(=N\NC(=N)N)c1sc(-c2ccc(C#CCCN3CCSC3)cc2)nc1C" : 32 µg/mL

Entry "CC(=O)NC[C@H]1CN(c2ccc(N3CCOCC3)c(F)c2)C(=O)O1" ; MBC = 64 µg/mL

Briefly, MBC measured for "C/C(=N\NC(=N)N)c1sc(-c2ccc(C#CCCN3CC(O)C3)cc2)nc1C" : 8 µg/mL

Entry "C/C(=N\NC(=N)N)c1sc(-c2ccc(C#CCCn3ccnc3)cc2)nc1C" , MBC reported as 16 µg/mL

###

- Tested on: Staphylococcus aureus
- Procedure Text: microbe, parasite or virus in culture
- Reported Conditions: NRS384
- Description: Antimicrobial activity against methicillin-resistant Staphylococcus aureus NRS384 by broth liquid microdilution method
Experimental Endpoint: MBC (µg/mL)
Quick note: give the figure in µg/mL, leave out the unit.

Reference set (5 entries):
[
  {
    "Compound Structure String": "C/C(=N\\NC(=N)N)c1sc(-c2ccc(C#CCCN3CCC3)cc2)nc1C",
    "Target System": "Staphylococcus aureus",
    "MBC, µg/mL": 4
  },
  {
    "Compound Structure String": "C/C(=N\\NC(=N)N)c1sc(-c2ccc(C#CCCN3CC(O)C3)cc2)nc1C",
    "Target System": "Staphylococcus aureus",
    "MBC, µg/mL": 4
  },
  {
    "Compound Structure String": "C/C(=N\\NC(=N)N)c1sc(-c2ccc(C#CCCn3ccnc3)cc2)nc1C",
    "Target System": "Staphylococcus aureus",
    "MBC, µg/mL": 16
  },
  {
    "Compound Structure String": "C/C(=N\\NC(=N)N)c1sc(-c2ccc(C#CCCN3CCSC3)cc2)nc1C",
    "Target System": "Staphylococcus aureus",
    "MBC, µg/mL": 32
  },
  {
    "Compound Structure String": "CC(=O)NC[C@H]1CN(c2ccc(N3CCOCC3)c(F)c2)C(=O)O1",
    "Target System": "Staphylococcus aureus",
    "MBC, µg/mL": 32
  }
]

Consider the record given below.
So for "CN[C@H](CC(C)C)C(=O)N[C@H]1C(=O)N[C@@H](CC(N)=O)C(=O)N[C@H]2C(=O)N[C@H]3C(=O)N[C@H](C(=O)N[C@H](C(=O)O)c4cc(O)cc(O)c4-c4cc3ccc4O)[C@H](O)c3ccc(c(Cl)c3)Oc3cc2cc(c3O[C@@H]2O[C@H](CO)[C@@H](O)[C@H](O)[C@H]2O[C@H]2C[C@](C)(N)[C@H](O)[C@H](C)O2)Oc2ccc(cc2Cl)[C@H]1O" , the logged MBC turned out to be 1

###

- System: Staphylococcus aureus
- Procedure Text: microbe, parasite or virus in culture
- Reported Conditions: NRS119
- Description: Antimicrobial activity against methicillin-resistant Staphylococcus aureus NRS119 by broth liquid microdilution method
Experimental Endpoint: MIC (µg/mL)
# unit: µg/mL | format: bare number

Before answering, review these 4 worked examples.
[
  {
    "Compound Structure String": "C/C(=N\\NC(=N)N)c1sc(-c2ccc(C#CCCn3ccnc3)cc2)nc1C",
    "MIC, µg/mL": 8
  },
  {
    "Compound Structure String": "CC(=O)NC[C@H]1CN(c2ccc(N3CCOCC3)c(F)c2)C(=O)O1",
    "MIC, µg/mL": 64
  },
  {
    "Compound Structure String": "C/C(=N\\NC(=N)N)c1sc(-c2ccc(C#CCCN3CCC3)cc2)nc1C",
    "MIC, µg/mL": 2
  },
  {
    "Compound Structure String": "C/C(=N\\NC(=N)N)c1sc(-c2ccc(C#CCCN3CCSC3)cc2)nc1C",
    "MIC, µg/mL": 4
  }
]

Query molecule follows.
Reading of MIC for "C/C(=N\NC(=N)N)c1sc(-c2ccc(C#CCCN3CC(O)C3)cc2)nc1C" with Staphylococcus aureus: 4

###

- System: Staphylococcus aureus
- Procedure Text: Antimicrobial activity against vancomycin-resistant Staphylococcus aureus 10 by broth liquid microdilution method
- Format: functional
Quick reference for MIC among some compounds

A selection of reference data follows.
[
  {
    "Compound Structure String": "C/C(=N\\NC(=N)N)c1sc(-c2ccc(C#CCCN3CCC3)cc2)nc1C",
    "Target System": "Staphylococcus aureus",
    "Measured Result": "2 µg/mL"
  },
  {
    "Compound Structure String": "C/C(=N\\NC(=N)N)c1sc(-c2ccc(C#CCCN3CCSC3)cc2)nc1C",
    "Target System": "Staphylococcus aureus",
    "Measured Result": "4 µg/mL"
  },
  {
    "Compound Structure String": "CC(=O)NC[C@H]1CN(c2ccc(N3CCOCC3)c(F)c2)C(=O)O1",
    "Target System": "Staphylococcus aureus",
    "Measured Result": "1 µg/mL"
  },
  {
    "Compound Structure String": "C/C(=N\\NC(=N)N)c1sc(-c2ccc(C#CCCN3CC(O)C3)cc2)nc1C",
    "Target System": "Staphylococcus aureus",
    "Measured Result": "4 µg/mL"
  },
  {
    "Compound Structure String": "CN[C@H](CC(C)C)C(=O)N[C@H]1C(=O)N[C@@H](CC(N)=O)C(=O)N[C@H]2C(=O)N[C@H]3C(=O)N[C@H](C(=O)N[C@H](C(=O)O)c4cc(O)cc(O)c4-c4cc3ccc4O)[C@H](O)c3ccc(c(Cl)c3)Oc3cc2cc(c3O[C@@H]2O[C@H](CO)[C@@H](O)[C@H](O)[C@H]2O[C@H]2C[C@](C)(N)[C@H](O)[C@H](C)O2)Oc2ccc(cc2Cl)[C@H]1O",
    "Target System": "Staphylococcus aureus",
    "Measured Result": "64 µg/mL"
  }
]

Looking up "C/C(=N\NC(=N)N)c1sc(-c2ccc(C#CCCn3ccnc3)cc2)nc1C" , I see its MIC listed as 4 µg/mL

###

- Tested on: Enterococcus faecium
- Procedure Text: Antimicrobial activity against vancomycin-resistant Enterococcus faecium ATCC 700221 by broth liquid microdilution method
- Type: functional
# Lookup of reported MIC keyed by entry

[
  {
    "Compound Structure String": "C/C(=N\\NC(=N)N)c1sc(-c2ccc(C#CCCN3CCSC3)cc2)nc1C",
    "Experimental Endpoint": "MIC",
    "Measured Result": "4 µg/mL"
  },
  {
    "Compound Structure String": "C/C(=N\\NC(=N)N)c1sc(-c2ccc(C#CCCN3CC(O)C3)cc2)nc1C",
    "Experimental Endpoint": "MIC",
    "Measured Result": "4 µg/mL"
  },
  {
    "Compound Structure String": "CC(=O)NC[C@H]1CN(c2ccc(N3CCOCC3)c(F)c2)C(=O)O1",
    "Experimental Endpoint": "MIC",
    "Measured Result": "1 µg/mL"
  },
  {
    "Compound Structure String": "CN[C@H](CC(C)C)C(=O)N[C@H]1C(=O)N[C@@H](CC(N)=O)C(=O)N[C@H]2C(=O)N[C@H]3C(=O)N[C@H](C(=O)N[C@H](C(=O)O)c4cc(O)cc(O)c4-c4cc3ccc4O)[C@H](O)c3ccc(c(Cl)c3)Oc3cc2cc(c3O[C@@H]2O[C@H](CO)[C@@H](O)[C@H](O)[C@H]2O[C@H]2C[C@](C)(N)[C@H](O)[C@H](C)O2)Oc2ccc(cc2Cl)[C@H]1O",
    "Experimental Endpoint": "MIC",
    "Measured Result": "> 64 µg/mL"
  },
  {
    "Compound Structure String": "C/C(=N\\NC(=N)N)c1sc(-c2ccc(C#CCCN3CCC3)cc2)nc1C",
    "Experimental Endpoint": "MIC",
    "Measured Result": "2 µg/mL"
  }
]

With those in mind, consider the next compound.
MIC recorded for this compound, "C/C(=N\NC(=N)N)c1sc(-c2ccc(C#CCCn3ccnc3)cc2)nc1C" , is 4 µg/mL
